# System: platelets
# Assay: In vitro platelet aggregation by various inducers, rat platelets
# Format: cell-based
# Condition Summary: Rattus norvegicus, read-out: 50% inhibition point, IC50, for in vitro platelet aggregation, inducer ADP (1 μM), rat platelets
Metric: IC50

Prompt: Value lookup for IC50; key = CC/C=C\C/C=C\C/C=C\C/C=C\C/C=C\C/C=C\CCC(=O)NCCC1CCCN1C (racemic)
Completion: > 100 µM

====

# System: platelets
# Assay: In vitro platelet aggregation by various inducers, rabbit platelets
# Assay type: cell-based
# Condition Summary: Oryctolagus cuniculus, Platelet, inducer arachidonic acid (1 mM), rabbit platelets; read-out: 50% inhibition point, IC50, for in vitro platelet aggregation
Metric: IC50

Prompt: Value lookup for IC50; key = CC/C=C\C/C=C\C/C=C\C/C=C\C/C=C\C/C=C\CCC(=O)NCCC1CCCN1C (racemic) [Compound 2]
Completion: > 100 µM

// data source = patent US6949553B2
